Target: Neutrophil collagenase (Homo sapiens, UniProt P22894)
Sequence (P22894 101-467 limits assumed): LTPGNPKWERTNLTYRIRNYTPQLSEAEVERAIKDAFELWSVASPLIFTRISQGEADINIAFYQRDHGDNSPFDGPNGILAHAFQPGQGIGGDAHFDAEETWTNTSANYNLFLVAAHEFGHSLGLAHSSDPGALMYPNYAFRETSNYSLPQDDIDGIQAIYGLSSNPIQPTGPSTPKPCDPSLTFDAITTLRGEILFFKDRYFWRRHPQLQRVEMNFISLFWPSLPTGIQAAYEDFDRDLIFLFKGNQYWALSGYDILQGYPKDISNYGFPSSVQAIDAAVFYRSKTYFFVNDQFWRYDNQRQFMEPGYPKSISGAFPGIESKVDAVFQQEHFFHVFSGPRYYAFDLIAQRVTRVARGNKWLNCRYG
Assay: Percent remaining enzyme activity (RA) in neutrophil collagenase (matrix metalloprotease-8)
Design: concentration or dose not given beside the values
recorded-endpoint: residual activity (%)

1. CN(C)C(=O)[C@H](Cc1c[nH]c2ccccc12)NC(=O)C(=O)NO; 44
2. CC(OCc1ccccc1)[C@H](NC(=O)C(=O)NO)C(=O)N(C)C (some centres not stated); 67
3. CC(C)C[C@H](NC(=O)C(=O)NO)C(=O)N(C)C; 72
4. O=C(NO)C(=O)N[C@@H](Cc1ccc(COc2ccccc2)cc1)C(=O)NO; 5
5. C[C@H](NC(=O)[C@H](Cc1ccc(NC(=O)OCc2ccccc2)cc1)NC(=O)C(=O)NO)c1ccccc1; 32
6. CC(C)C[C@H](NC(=O)C(=O)NO)C(=O)N[C@H](C)c1ccccc1; 74
7. O=C(NO)C(=O)NCCC(NC(=O)C(=O)NO)C1CCCCC1 (configuration not stated); 39
8. C[C@H](NC(=O)[C@H](Cc1ccc(O)cc1)NC(=O)C(=O)NO)c1ccccc1; 0
9. CN(C)C(=O)[C@H](Cc1ccccc1)NC(=O)C(=O)NO; 48
10. CC(NC(=O)[C@H](Cc1ccccc1)NC(=O)C(=O)NO)c1cccc2ccccc12 (some centres not stated); 5
11. CNC(=O)[C@H](Cc1ccc(OCc2ccccc2)cc1)NC(=O)C(=O)NO; 4
12. CN(C)C(=O)[C@H](Cc1ccc(COc2ccccc2)cc1)NC(=O)C(=O)NO; 43
13. CCCCC(CC)COCCCNC(=O)C(=O)NO (configuration not stated); 12
14. C[C@H](NC(=O)[C@H](COCc1ccccc1)NC(=O)C(=O)NO)c1ccccc1; 1
15. O=C(NO)C(=O)NCCc1c[nH]c2ccc(Cl)cc12; 15
16. C[C@@H](NC(=O)C(=O)NO)c1ccc2ccccc2c1; 43
17. C[C@H](NC(=O)[C@H](Cc1ccc(NC(=O)Nc2ccccc2)cc1)NC(=O)C(=O)NO)c1ccccc1; 6
18. C[C@H](NC(=O)[C@H](Cc1ccc(OCc2ccccc2)cc1)NC(=O)C(=O)NO)c1ccccc1; 5
19. C[C@H](NC(=O)C(=O)NO)C(=O)N[C@@H](C)c1ccccc1; 9
20. CCCC[C@H](NC(=O)C(=O)NO)C(=O)N[C@H](Cc1ccc(OCc2ccccc2)cc1)C(=O)N(C)C; 34
21. C[C@H](NC(=O)[C@H](Cc1c[nH]c2ccccc12)NC(=O)C(=O)NO)c1ccccc1; 2
22. CN(C)C(=O)[C@H](Cc1cccc2ccccc12)NC(=O)C(=O)NO; 47
23. C[C@H](NC(=O)[C@H](CC(=O)OCc1ccccc1)NC(=O)C(=O)NO)c1ccccc1; 1
24. C[C@H](NC(=O)[C@H](Cc1cccc2ccccc12)NC(=O)C(=O)NO)c1ccccc1; 0
25. CC(C)C[C@H](NC(=O)C(=O)NO)C(=O)N[C@@H](C)c1ccccc1; 3
26. O=C(NO)C(=O)NCCc1c[nH]c2ccccc12; 18
27. O=C(NO)C(=O)NCCN(C(=O)C(=O)NO)c1cccc2ccccc12; 14
